B1: HEEH_KT_rd6_3632 (parent)
chain: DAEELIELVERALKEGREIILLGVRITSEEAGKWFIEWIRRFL

- Variants of: B1
- protocol: folding stability dG (cDNA display proteolysis); higher = more stable
- settings: PBS, room temperature
folding stability dG by entry:
The reply should be a number in kcal/mol, with the unit left off.

Return folding stability dG (reported value) for this variant: DAEELIELVERALKEGRECILLGVRITSEEAGKWFIEWIRRFL [I19C]
4.54

Please supply the value of reported folding stability dG for the item GAEELIELVERALKEGREIILLGVRITSEEAGKWFIEWIRRFL [D1G]
3.9

Give reported folding stability dG value for DAEELGELVERALKEGREIILLGVRITSEEAGKWFIEWIRRFL [I6G]
3.18
